Task for the reader: assign each of the following molecules its reported MIC.
test system: E. coli clinical isolates; assay: Microdilution broth MIC, E. coli clinical isolates (Table 1); type: cell-based; conditions: Escherichia coli, E. coli LC136; SHV (WT + 238S); read-out: MIC
Answers are plain numbers, in µg/mL.

smiles: CC(C)(O/N=C(\C(=O)N[C@H]1CN2CC(C(=O)NCCN3C(=O)c4cc(O)c(O)cc4C3=O)=C(C(=O)O)N2C1=O)c1csc(N)n1)C(=O)O
recorded result: 0.125

Consider the additional molecule presented here.
Need MIC, item CC1(C)S[C@@H]2[C@H](NC(=O)[C@H](N)c3ccccc3)C(=O)N2[C@H]1C(=O)O
512
